As shown below, each of these molecules has a reported tissue uptake at 1 h value.
Experiment: Biodistribution of 18F-labeled SST2 ligands in AR42J tumor-bearing mice
Format: in vivo
Settings: female, CD1 nu/nu, mouse, bone, iv, total radioactivity, 1 h post injection, tail vein; read-out: Bone % ID/g ± SD
Could you give me the number in %ID/g? Just the number is fine.

Would you please look over these solved cases?
>  <molecule>
C[C@@H](O)[C@H](NC(=O)C1CSSCC(NC(=O)C(Cc2ccccc2)NC(=O)CNC(=O)CNC(=O)CNC(=O)C(CC(=O)O)NC(=O)[C@@H](CC(=O)O)NC(=O)C(CCCNC(N)=O)NC(=O)[C@@H](CNC(=O)C[N+](C)(C)Cc2ccc([Si](F)(C(C)(C)C)C(C)(C)C)cc2)NC(=O)CN2CCN(CC(=O)O)CCN(CC(=O)O)CCN(CC(=O)O)CC2)C(=O)N[C@@H](Cc2ccc(O)cc2)C(=O)NC(Cc2c[nH]c3ccccc23)C(=O)N[C@@H](CCCCN)C(=O)N[C@@H]([C@@H](C)O)C(=O)N1)C(=O)O (some centres unmarked) (natGa complex, metal not drawn) [[Ga]46]

>  <quantity.unit>
%ID/g

>  <tissue uptake at 1 h>
1.21

$$$$
>  <molecule>
C[C@@H](O)[C@H](NC(=O)C1CSSCC(NC(=O)C(Cc2ccccc2)NC(=O)CNC(=O)CNC(=O)[C@@H](CC(=O)O)NC(=O)C(CC(=O)O)NC(=O)[C@@H](CNC(=O)CN2CCN(CC(=O)O)CCN(CC(=O)O)CCN(CC(=O)O)CC2)NC(=O)C[N+](C)(C)Cc2ccc([Si](F)(C(C)(C)C)C(C)(C)C)cc2)C(=O)N[C@@H](Cc2ccc(O)cc2)C(=O)NC(Cc2c[nH]c3ccccc23)C(=O)N[C@@H](CCCCN)C(=O)N[C@@H]([C@@H](C)O)C(=O)N1)C(=O)O (some centres unmarked) (natGa complex, metal not drawn) [[Ga]24]

>  <quantity.unit>
%ID/g

>  <tissue uptake at 1 h>
1.32

$$$$
>  <molecule>
C[C@@H](O)[C@H](NC(=O)C1CSSCC(NC(=O)C(Cc2ccccc2)NC(=O)CNC(=O)CNC(=O)[C@@H](CC(=O)O)NC(=O)C(CC(=O)O)NC(=O)[C@@H](CNC(=O)CN2CCN(CC(=O)O)CCN(CC(=O)O)CCN(CC(=O)O)CC2)NC(=O)C(CN)NC(=O)c2ccc([Si](F)(C(C)(C)C)C(C)(C)C)cc2)C(=O)N[C@@H](Cc2ccc(O)cc2)C(=O)NC(Cc2c[nH]c3ccccc23)C(=O)N[C@@H](CCCCN)C(=O)N[C@@H]([C@@H](C)O)C(=O)N1)C(=O)O (some centres unmarked) (natGa complex, metal not drawn) [[Ga]19]

>  <quantity.unit>
%ID/g

>  <tissue uptake at 1 h>
1.96

$$$$
>  <molecule>
C[C@@H](O)[C@H](NC(=O)C1CSSCC(NC(=O)C(Cc2ccccc2)NC(=O)CNC(=O)CNC(=O)CNC(=O)C(CC(=O)O)NC(=O)[C@@H](CC(=O)O)NC(=O)C(CCCCN)NC(=O)[C@@H](CNC(=O)C[N+](C)(C)Cc2ccc([Si](F)(C(C)(C)C)C(C)(C)C)cc2)NC(=O)CN2CCN(CC(=O)O)CCN(CC(=O)O)CCN(CC(=O)O)CC2)C(=O)N[C@@H](Cc2ccc(O)cc2)C(=O)NC(Cc2c[nH]c3ccccc23)C(=O)N[C@@H](CCCCN)C(=O)N[C@@H]([C@@H](C)O)C(=O)N1)C(=O)O (some centres unmarked) (natGa complex, metal not drawn) [[Ga]45]

>  <quantity.unit>
%ID/g

>  <tissue uptake at 1 h>
1.81

$$$$

Next, consider the following molecule.
Q: Returns the measured tissue uptake at 1 h for the input molecule. Input: C[C@@H](O)[C@H](NC(=O)C1CSSCC(NC(=O)C(Cc2ccccc2)NC(=O)CNC(=O)CNC(=O)CNC(=O)C(CC(=O)O)NC(=O)[C@@H](CC(=O)O)NC(=O)C(CNC(=O)CN2CCN(CC(=O)O)CCN(CC(=O)O)CCN(CC(=O)O)CC2)NC(=O)C[N+](C)(C)Cc2ccc([Si](F)(C(C)(C)C)C(C)(C)C)cc2)C(=O)N[C@@H](Cc2ccc(O)cc2)C(=O)NC(Cc2c[nH]c3ccccc23)C(=O)N[C@@H](CCCCN)C(=O)N[C@@H]([C@@H](C)O)C(=O)N1)C(=O)O (some centres unmarked) (natGa complex, metal not drawn) [[Ga]50]
Ans: 1.23
